target: T1, cyno PD-1, full length, on CHO-K1 cells (cyno monkey, UniProt B0LAJ3 25-288); assay: flow cytometry on CHO-K1-cPD-1 cells
T1 construct: also called CHO-K1-cPD-1; cPD-1
T1 sequence (B0LAJ3 entry or part of it limits assumed): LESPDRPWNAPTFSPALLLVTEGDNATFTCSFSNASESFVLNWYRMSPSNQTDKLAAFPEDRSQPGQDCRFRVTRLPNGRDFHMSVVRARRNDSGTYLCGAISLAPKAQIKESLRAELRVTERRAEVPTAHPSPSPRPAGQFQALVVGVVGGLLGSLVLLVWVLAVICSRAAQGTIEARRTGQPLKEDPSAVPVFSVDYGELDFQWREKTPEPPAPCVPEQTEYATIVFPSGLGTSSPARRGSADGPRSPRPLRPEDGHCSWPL
Record form. Attribute: MFI at 0.1 nM. Fill in for each entry.
Answers are plain numbers, in MFI.

Check out these entries, answers already filled in.
binder="chimeric anti-PD-1 antibody 226C3A7 (antibody, V domains shown) VH: QVQLQQSGPGLVNPSQTLSLTCAISGDSVSSNSGAWNWIRQSPSRGLEWLGRTYYRSKWYNDYGISVQSRITINPDTSKNHFSLQLNSVTPEDTAVYYCARDPYYYGSGSYFDYWGQGTLVTVSS VL: EIVMTQSPATLSVSPGERVTLSCRASLSVNSNLAWYQQKPGQAPRLLIYDTSTRATGVPARFSGSGSGTEFTLTISSLQSEDFAVYYCQQYHYWPLTFGGGTKVEIK" measured_value=3.3
binder="chimeric anti-PD-1 antibody 223G6B5 (antibody, V domains shown) VH: QVQLQESGPGLVKPSETLSLTCAVSGHSIRGSYFWGWIRQPPGRGLEWIGSIYHSGSTYTNPSLKSRATISVDTSKNQFSLKLNSVTAADTAVYYCARDLDIATTRDYWGQGTLVTVSS VL: DIQLTQSPSFLSASVGDRVTIICRASQGINNYLAWYQQKPGKAPKLLIYAASTLQSGVPSRFSGSGSGTEFTLTISSLQPEDFATYYCQQLDSYPRTFGQGTKVEIKR" measured_value=50.6
binder="chimeric anti-PD-1 antibody 32B5C7 (antibody, V domains shown) VH: EVQLLESGGGLVQPGGSLRLSCAASGFTFSSYAMSWVRQAPGKGLEWVSTISGSGGTTYYADSVKGRFTISRDNSKNTLYLQMNSLRAEDTAVYYCTLTGDPDYWGQGTLVTVSS VL: EIVLTQSPATLSLSPGERATLSCRASQSVSSYLAWYQQKPGQAPRLLIYDASKRATGIPARFSGSGSGTDFTLTISSLEPEDFAVYYCQQRNNWPLTFGGGTKVEIK" measured_value=13.7

Quick note, MFI at 0.1 nM for chimeric anti-PD-1 antibody 21G8F11 (antibody, V domains shown) VH: EVQLLESGGGLAQPGGSLRLSCAASGFSFNTYLMHWVRQAPGKGLEWVSAISGGGGNTYYADSVKGRFTISRDNSKNTLYLQMNSLRAEDTAVYYCAKENRIPVAPFDYWGQGTLVTVSS VL: DIQMTQSPSTLSASVGDRVTITCRASQSISTWLAWYQQKPGKAPKLLIYKASSLESGVPSRFSGSGSGTEFTLTISSLQPDDLATYYCQQYNSFSWTFGQGTKVEIK landed at 23.4
